Experiment: physchem
Settings: saline or isotonic

Compound	solubility
COc1ccc2c3c([nH]c2c1)CCN(C)CC3 [TBG]	≥ 40 mg/mL

* * *

Assay: Solubility in 0.9% saline
Details: saline or isotonic

Smiles notation	solubility
COc1ccc2[nH]c3c(c2c1)CCN(C)CC3	≥ 40 mg/mL
